Organism: Cavia porcellus
experimentalDetails: Selectivity ratio between CCK-B and CCK-A receptor
Set-up: reference not given here
valueKind: Selectivity ratio

1) CN1C(=O)C(NC(=O)Nc2ccncc2)N=C(c2ccccc2)c2ccccc21 (racemic); 1.4
2) CN1C(=O)C(NC(=O)Nc2cccc(Br)c2)N=C(c2ccccc2)c2ccccc21 (racemic); 1
3) COc1ccc(NC(=O)NC2N=C(c3ccccc3)c3ccccc3N(C)C2=O)cn1 (stereo not given); 6.3
4) Cc1cccc(NC(=O)NC2N=C(c3ccccc3)c3ccccc3N(Cc3n[nH]c(C)n3)C2=O)c1 (racemic); 58
5) C#Cc1cccc(NC(=O)NC2N=C(c3ccccc3)c3ccccc3N(C)C2=O)c1 (stereo not given); 18
6) CN1C(=O)C(NC(=O)Nc2ccccn2)N=C(c2ccccc2)c2ccccc21 (racemic); 1.3
7) COc1cccc(NC(=O)N[C@@H]2N=C(c3ccccc3)c3ccccc3N(C)C2=O)c1; 272
8) Cc1ccc(NC(=O)NC2N=C(c3ccccc3)c3ccccc3N(C)C2=O)cc1C (stereo not given); 14
9) COC(=O)Cc1cccc(NC(=O)NC2N=C(c3ccccc3)c3ccccc3N(C)C2=O)c1 (stereo not given); 64
10) CCN(CC)C(=O)CN1C(=O)C(NC(=O)Nc2ccccc2Cl)N=C(c2ccccc2)c2ccccc21 (racemic); 53
11) CN1C(=O)C(NC(=O)Nc2cccnc2)N=C(c2ccccc2)c2ccccc21 (racemic); 0.4
12) Cc1cccc(NC(=O)NC2N=C(c3ccccc3)c3ccccc3N(CCN(C)C)C2=O)c1 (racemic); 73
13) CCOC(=O)CN1C(=O)C(NC(=O)Nc2ccc(Cl)cc2)N=C(c2ccccc2F)c2ccccc21 (racemic); 183
14) O=C(Nc1ccc(Cl)cc1)NC1N=C(c2ccccc2)c2ccccc2N(CC(=O)OCc2ccccc2)C1=O (racemic); 30
15) CC(=O)c1cccc(NC(=O)NC2N=C(c3ccccc3)c3ccccc3N(C)C2=O)c1 (stereo not given); 361
16) Cc1cccc(NC(=O)NC2N=C(c3ccccn3)c3ccccc3N(C)C2=O)c1 (stereo not given); 1
17) O=C(Nc1ccc(Cl)cc1)N[C@H]1N=C(c2ccccc2)c2ccccc2N(CC(=O)N2CCCC2)C1=O; 192
18) Cc1cccc(NC(=O)NC2N=C(c3ccccc3)c3ccccc3N(Cc3ncc[nH]3)C2=O)c1 (racemic); 4
19) CN1C(=O)[C@H](NC(=O)Nc2cccc(Br)c2)N=C(c2ccccc2)c2ccccc21; 221
20) CN1C(=O)C(NC(=O)Nc2cccc(CC(=O)O)c2)N=C(c2ccccc2)c2ccccc21 (stereo not given); 12
21) CN1C(=O)[C@H](NC(=O)Nc2cccc(CN)c2)N=C(c2ccccc2)c2ccccc21; 0.22
22) COc1ccccc1NC(=O)NC1N=C(c2ccccc2)c2ccccc2N(C)C1=O (racemic); 0.5
23) C[C@H](NC(=O)NC1N=C(c2ccccc2)c2ccccc2N(C)C1=O)c1ccccc1 (mixture of isomers); 0.04
24) CN1C(=O)[C@H](NC(=O)Nc2cccc(Cl)c2)N=C(c2ccccc2)c2ccccc21; 39
25) Cc1cccc(NC(=O)NC2N=C(c3ccccc3)c3ccccc3N(CC(=O)O)C2=O)c1 (racemic); 0.02
26) CN1C(=O)C(NC(=O)NC2CCCCC2)N=C(c2ccccc2)c2ccccc21 (racemic); 0.8
27) CN1C(=O)C(NC(=O)Nc2cccc(-c3ccccc3)c2)N=C(c2ccccc2)c2ccccc21 (racemic); 1
28) CCN(CC)C(=O)CN1C(=O)C(NC(=O)Nc2ccc(Cl)cc2)N=C(c2ccccc2)c2ccccc21 (racemic); 667
29) CN1C(=O)C(NC(=O)Nc2cccc(C#N)c2)N=C(c2ccccc2)c2ccccc21 (stereo not given); 115
30) O=C(Nc1ccc(Cl)cc1)NC1N=C(c2ccccc2)c2ccccc2NC1=O (racemic); 0.4

Recorded values, source ChEMBL document CHEMBL1126970.
